Give measured TGI for each item. Keep answers brief.
Tested on: SW-620 colon
Assay: NCI tumour cell line growth inhibition, 48 h

Record excerpt, results attached:
NC(=O)c1cc2c3ccccc3ccn2c1-c1ccccc1	25 µM
COc1ccc(/C=C2\CCCC(C(NO)c3ccc(OC)cc3)C2=NO)cc1 (configuration not stated)	> 100 µM
OCCNc1ncnc2c1ncn2Cc1cccc(COc2cccc(OCc3cccc(Cn4cnc5c(NCCO)ncnc54)c3)c2)c1	24.9 µM
O=C1N=C2SC(=S)NC(=S)N2NC12c1ccccc1-c1ccccc12	> 10 µM
COc1ccc(/C=C\c2cc(OC)c(O[Si](C)(C)C(C)(C)C)c(OC)c2)cc1	> 100 µM

For each of the items listed, what is its TGI?
1. Cc1sc2nc3c4ccccc4c(NCCCN(C)C)nn3c(=O)c2c1C
2. c1cncc(CC2(c3cc4ccccc4[nH]3)OCCO2)c1
3. COc1cc2cc(C(=O)N3C[C@H](CCl)c4c3cc(N)c3ccccc43)[nH]c2c(OC)c1OC

1. 4.55 µM
2. > 100 µM
3. > 50 µM

For each of the items listed, what is its TGI?
1. COc1cc(-c2n/c(=C\c3c(O)[nH]c4ccc(Cl)cc34)cc3c2=Nc2ccccc2-3)ccc1F
2. O=c1nc2c(c(-c3ccc(Br)cc3)[nH]1)COC/C2=C\c1ccc(Br)cc1
3. CCOC(=O)/C=C/C1=C(c2cccs2)c2ccccc2CC1
4. C=C(C)OCOCCOC
5. CCOC(=O)c1s/c(=N\Nc2nc3ccccc3cc2C2OCCO2)n(Cc2ccccc2)c1C
6. S=C(N/N=C\C(=N/NC(=S)N1CCCCC1)c1ccccc1)N1CCCCC1

["2.94 µM", "> 50 µM", "> 100 µM", "> 100 µM", "> 100 µM", "3.83 µM"]

For each of the items listed, what is its TGI?
1. C/C=C/C=C/C=C/C=C/C(=O)O
2. CSc1cc(=O)n2c3ccccc3c3ccnc1c32

["> 100 µM", "> 100 µM"]

----------
Test system: SNB-75 CNS
Assay: NCI tumour cell line growth inhibition, 48 h
Quick rule for you: TGI at 20 µM or higher means label 1, lower means label 0.

// known answers, use as guide
O=[N+]([O-])c1cnn(C2=CNc3ccccc3N=C2)c1	label 1
Cc1nc2sccn2c1-c1csc(Nc2cccc(Cl)c2C)n1	label 1
CC(C)N1CC2CC(CN(C(=O)c3ccccc3)C2)C1	label 1

API: above_or_equal(metric=TGI, cutoff=20 µM) for item CC1CCC2(NC1)OC1CC3C4CC=C5CC(OC6OC(CO)C(OC7OC(C)C(O)C(O)C7O)C(O)C6OC6OC(C)C(O)C(O)C6O)CCC5(C)C4CCC3(C)C1C2C (stereo not given)
label 0

API: above_or_equal(metric=TGI, cutoff=20 µM) for item CNCCn1c(=O)c2cc(OC)c(OC)cc2c2ccc3cc4c(cc3c21)OCO4
label 0

API: above_or_equal(metric=TGI, cutoff=20 µM) for item NC(=O)c1cc2c3ccccc3ccn2c1-c1ccccc1
label 1

----------
Test system: NCI-H460 lung
Assay: NCI tumour cell line growth inhibition, 48 h
Quick rule for you: TGI at 30 µM or higher means true, lower means false.

// known answers, use as guide
CSc1nc(NC(C)C)c2c(n1)Sc1nc3ccccc3n1N=C2	true
CC1=NN(c2nc(N)nc(-c3sccc3N)n2)C(C)(C)C1	true
COC(=O)[C@]12CCC(C)[C@H](C)[C@H]1C1=CCC3[C@@]4(C)CC[C@H](OC(C)=O)C(C)(C)C4CC[C@@]3(C)C1(C)C(O)C2 (some centres not stated)	true
O=[N+]([O-])c1cnn(C2=CNc3ccccc3N=C2)c1	true
Nc1nc(Cl)cc(NCC2(O)CC2)n1	true

API: above_or_equal(metric=TGI, cutoff=30 µM) for item COc1ccc2c(c1)/C(=C\c1c(Cl)[nH]c3ccc(OC)cc13)C(=O)N2
true

API: above_or_equal(metric=TGI, cutoff=30 µM) for item Cc1ccc(C(=O)N/N=C(\N=Nc2ccccc2)c2ccc(N(C)C)cc2)cc1
true
